Data origin, for the record: ChEMBL document CHEMBL3593235

Test system: Mus musculus
Assay: Hypoglycemic activity in ICR mouse assessed as decrease in elevated postprandial blood glucose level at 20 mg/kg, po administered 30 mins prior to glucose challenge measured after 30 mins by OGTT
Type: functional, organism-based
The source made the active and inactive calls. The calls are words filed in the database; no cut-off is given here.

[
  {
    "structure.notation": "O=C(O)CCCCCOc1cc(O)cc2oc(-c3ccc(O)cc3)cc(=O)c12",
    "Activity": "inactive"
  },
  {
    "structure.notation": "O=C(O)CCCCCCCOc1cc(O)c2c(=O)cc(-c3ccc(O)cc3)oc2c1",
    "Activity": "inactive"
  },
  {
    "structure.notation": "O=C(O)CCCCCCOc1cc(O)cc2oc(-c3ccc(O)cc3)cc(=O)c12",
    "Activity": "inactive"
  },
  {
    "structure.notation": "O=C(O)CCCCOc1cc(O)cc2oc(-c3ccc(O)cc3)cc(=O)c12",
    "Activity": "inactive"
  }
]

----------
Molecular target: Xanthine dehydrogenase/oxidase (Homo sapiens, UniProt P47989)
Sequence (P47989 whole entry): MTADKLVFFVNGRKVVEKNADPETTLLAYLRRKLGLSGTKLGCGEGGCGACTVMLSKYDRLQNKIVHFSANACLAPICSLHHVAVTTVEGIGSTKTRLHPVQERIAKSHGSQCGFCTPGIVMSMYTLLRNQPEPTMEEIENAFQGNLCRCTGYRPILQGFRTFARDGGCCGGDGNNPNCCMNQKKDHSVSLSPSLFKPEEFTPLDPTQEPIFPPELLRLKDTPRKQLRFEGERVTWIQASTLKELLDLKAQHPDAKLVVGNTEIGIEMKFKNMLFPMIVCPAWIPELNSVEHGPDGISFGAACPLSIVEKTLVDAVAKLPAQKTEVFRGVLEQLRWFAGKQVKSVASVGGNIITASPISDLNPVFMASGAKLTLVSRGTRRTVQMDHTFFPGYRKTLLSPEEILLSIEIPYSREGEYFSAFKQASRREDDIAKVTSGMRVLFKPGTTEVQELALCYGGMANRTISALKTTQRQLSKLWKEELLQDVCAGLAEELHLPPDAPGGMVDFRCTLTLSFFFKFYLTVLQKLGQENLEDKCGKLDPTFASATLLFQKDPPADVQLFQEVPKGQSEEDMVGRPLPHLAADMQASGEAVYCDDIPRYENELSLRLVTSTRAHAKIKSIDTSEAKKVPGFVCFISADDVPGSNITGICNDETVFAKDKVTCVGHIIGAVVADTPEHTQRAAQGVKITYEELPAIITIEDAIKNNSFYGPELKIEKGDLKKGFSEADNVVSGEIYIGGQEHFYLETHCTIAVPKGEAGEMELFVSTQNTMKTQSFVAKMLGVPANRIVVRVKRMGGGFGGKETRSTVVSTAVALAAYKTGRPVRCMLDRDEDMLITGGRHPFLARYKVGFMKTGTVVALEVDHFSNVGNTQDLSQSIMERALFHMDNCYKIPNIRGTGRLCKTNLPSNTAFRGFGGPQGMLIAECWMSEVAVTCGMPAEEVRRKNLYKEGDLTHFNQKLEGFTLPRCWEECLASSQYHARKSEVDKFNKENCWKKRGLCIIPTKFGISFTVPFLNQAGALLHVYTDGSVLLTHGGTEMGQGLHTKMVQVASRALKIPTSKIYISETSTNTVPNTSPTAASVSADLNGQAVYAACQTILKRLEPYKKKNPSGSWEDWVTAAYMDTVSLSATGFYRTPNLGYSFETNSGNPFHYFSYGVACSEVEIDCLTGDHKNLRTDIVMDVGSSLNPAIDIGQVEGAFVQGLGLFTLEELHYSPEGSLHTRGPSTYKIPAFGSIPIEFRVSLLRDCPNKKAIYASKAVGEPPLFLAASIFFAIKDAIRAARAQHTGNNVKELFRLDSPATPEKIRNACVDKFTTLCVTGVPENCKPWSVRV
# IC50 listing for each entry below
Expressed in µM, but write only the number.

[
  {
    "structure.notation": "O=c1cc(-c2ccc(O)cc2)oc2cc(O)cc(O)c12",
    "tested.system": "Xanthine dehydrogenase/oxidase (Homo sapiens, UniProt P47989)",
    "IC50, µM": 3.2
  }
]

Next item in the queue.
Asked: Value lookup for IC50; key = O=C(O)CCCCOc1ccc(-c2cc(=O)c3c(O)cc(O)cc3o2)cc1
Given back: 0.22

----------
Assay: Inhibition of alpha glucosidase (unknown origin) using para-nitrophenyl-alpha-D-glucopyranoside as substrate preincubated for 15 mins followed by substrate addition measured after 10 mins by spectrophotometric analysis
Set-up: species or system Homo sapiens
Measured pIC50 by item
The read-out pIC50 is expressed as -log10 of concentration in moles per litre.

[
  {
    "molecule": "C[C@H]1O[C@H](O[C@H]2[C@H](O)[C@@H](O)[C@@H](O[C@H]3[C@H](O)[C@@H](O)C(O)O[C@@H]3CO)O[C@@H]2CO)[C@H](O)[C@@H](O)[C@@H]1N[C@H]1C=C(CO)[C@@H](O)[C@H](O)[C@H]1O (stereo partly drawn)",
    "pIC50": 3.65
  },
  {
    "molecule": "O=c1cc(-c2ccc(O)cc2)oc2cc(O)cc(O)c12",
    "pIC50": 4.61
  },
  {
    "molecule": "O=C(O)CCCCCOc1cc(O)cc2oc(-c3ccc(O)cc3)cc(=O)c12",
    "pIC50": 4.58
  },
  {
    "molecule": "O=C(O)CCCCCOc1cc(O)c2c(=O)cc(-c3ccc(O)cc3)oc2c1",
    "pIC50": 3.99
  }
]

Attention now turns to another entry.
Asked: I would be grateful if you could share the reported pIC50 for O=C(O)CCCOc1cc(O)cc2oc(-c3ccc(O)cc3)cc(=O)c12 .
Given back: 4.45

----------
Assay: Inhibition of alpha glucosidase (unknown origin) using para-nitrophenyl-alpha-D-glucopyranoside as substrate preincubated for 15 mins followed by substrate addition measured after 10 mins by spectrophotometric analysis
Set-up: species or system Homo sapiens
Collected IC50 values appear next to each entry.

Some solved cases for reference:
[
  {
    "structure.notation": "O=C(O)CCCOc1ccc(-c2cc(=O)c3c(O)cc(O)cc3o2)cc1",
    "IC50": "> 500 µM"
  },
  {
    "structure.notation": "O=C(O)CCCCCCCOc1cc(O)cc2oc(-c3ccc(O)cc3)cc(=O)c12",
    "IC50": "> 500 µM"
  }
]

Asked: Data request, read-out IC50, for O=C(O)COc1ccc(-c2cc(=O)c3c(O)cc(O)cc3o2)cc1
Given back: > 500 µM
